Study Target: CaBzz1-D1
Run Description: SPOT peptide array binding signal intensity (averaged, normalized) (arbitrary units (background-subtracted, floor 0; scale differs between SH3 domains)); higher = stronger binding of the SH3 domain to the peptide
Readout: SPOT peptide array binding signal intensity

Answered cases to consult:
Binder	Endpoint Value
NTMKKRPAPPSLPSL	2650
PPIPNAPLSPAPAVP	≤ 0
TKRKRPARLIFYDSK	108
TPTSGPPLLPPRNTM	91
RRRRRPHRIERPLSN	96

**Q:** Value lookup for SPOT peptide array binding signal intensity; key = RPVPRRPSQPLNTLS
**A:** 388

**Q:** Value lookup for SPOT peptide array binding signal intensity; key = AAHKTKPSIPPKKVE
**A:** 257

**Q:** Value lookup for SPOT peptide array binding signal intensity; key = KWVRRPKLMTPLTFS
**A:** 164

**Q:** Value lookup for SPOT peptide array binding signal intensity; key = VQPTAAPATPPRHIS
**A:** ≤ 0

**Q:** Value lookup for SPOT peptide array binding signal intensity; key = VKPRQLFPIPLNKVD
**A:** 110

**Q:** Value lookup for SPOT peptide array binding signal intensity; key = ALFRLSFFFPLDPAY
**A:** 574

**Q:** Value lookup for SPOT peptide array binding signal intensity; key = MTKTPETSPPKRPMG
**A:** 30

**Q:** Value lookup for SPOT peptide array binding signal intensity; key = LKHGWKPLRPIKLIS
**A:** ≤ 0

**Q:** Value lookup for SPOT peptide array binding signal intensity; key = RRRIAYPFYPFKKLG
**A:** 21

**Q:** Value lookup for SPOT peptide array binding signal intensity; key = RRTRLRPPTPLSQLL
**A:** 233

**Q:** Value lookup for SPOT peptide array binding signal intensity; key = GLRRARYKFPGQQKI
**A:** 74.5

**Q:** Value lookup for SPOT peptide array binding signal intensity; key = TTAPALPSLPPPPLL
**A:** 3.5

**Q:** Value lookup for SPOT peptide array binding signal intensity; key = PELAPKREAPKPPAN
**A:** 652

**Q:** Value lookup for SPOT peptide array binding signal intensity; key = NMLKKKPLKKPLKRF
**A:** 208

**Q:** Value lookup for SPOT peptide array binding signal intensity; key = HPRFVSPRIPSRIVK
**A:** 255

**Q:** Value lookup for SPOT peptide array binding signal intensity; key = NENKKLPPAPTVFGL
**A:** 3.5

**Q:** Value lookup for SPOT peptide array binding signal intensity; key = PHNPSPFFPPPDFND
**A:** 1.5

**Q:** Value lookup for SPOT peptide array binding signal intensity; key = HVRRSILALPLGVLL
**A:** 21
